Experimental target: mushroom tyrosinase (Agaricus bisporus, UniProt C7FF04)
Sequence (C7FF04 1-392): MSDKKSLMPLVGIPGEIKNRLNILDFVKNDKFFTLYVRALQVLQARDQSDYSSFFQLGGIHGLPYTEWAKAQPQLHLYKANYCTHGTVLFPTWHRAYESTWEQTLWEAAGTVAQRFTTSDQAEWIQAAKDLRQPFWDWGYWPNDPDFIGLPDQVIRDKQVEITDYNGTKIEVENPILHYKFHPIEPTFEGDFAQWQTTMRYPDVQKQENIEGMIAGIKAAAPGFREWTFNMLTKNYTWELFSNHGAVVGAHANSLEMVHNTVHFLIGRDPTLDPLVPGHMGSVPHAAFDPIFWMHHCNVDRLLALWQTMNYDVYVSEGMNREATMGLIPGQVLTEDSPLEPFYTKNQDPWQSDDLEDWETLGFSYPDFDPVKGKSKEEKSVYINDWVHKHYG
Sequence (G1K3P4 entry or part of it, further chain): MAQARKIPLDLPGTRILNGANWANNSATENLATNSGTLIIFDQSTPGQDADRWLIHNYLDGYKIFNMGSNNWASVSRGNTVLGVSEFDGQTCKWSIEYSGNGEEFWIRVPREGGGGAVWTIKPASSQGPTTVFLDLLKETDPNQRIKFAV
Experiment summary: Kinetic studies of mushroom tyrosinase (Lineweaver-Burk, nonlinear regression)
Format: biochemical
Particulars: Table 4, mushroom tyrosinase
Endpoint: Ki (µM)
Field: numeric (µM). Do not append units.

Ki recorded for this substance, RRFVCC (chains of the parent or of the whole protein) [Peptide P15] , is 167
